run.description: self-splicing fitness, log relative to wild type (ln ratio); higher = more splicing; Tetrahymena group I intron in knt gene, E. coli kanamycin selection, DiMSum; sequences stand for … in CUCUCU…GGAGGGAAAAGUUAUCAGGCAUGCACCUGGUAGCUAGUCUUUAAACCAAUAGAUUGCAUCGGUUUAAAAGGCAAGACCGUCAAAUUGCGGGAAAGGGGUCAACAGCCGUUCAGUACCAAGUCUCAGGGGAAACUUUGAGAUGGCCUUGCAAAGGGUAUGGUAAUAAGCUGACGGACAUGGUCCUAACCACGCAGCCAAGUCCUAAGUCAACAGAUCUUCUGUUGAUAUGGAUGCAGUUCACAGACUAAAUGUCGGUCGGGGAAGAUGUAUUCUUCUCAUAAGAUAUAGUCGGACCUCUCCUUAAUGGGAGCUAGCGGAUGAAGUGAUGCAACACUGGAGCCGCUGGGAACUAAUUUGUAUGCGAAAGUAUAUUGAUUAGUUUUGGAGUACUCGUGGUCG;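 note: selection with 25 µg/mL kanamycin versus none on LB agar overnight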
measurement.setup: 37 °C
Outcome label depends on self-splicing fitness (ln) relative to -0.09: at/above gives True, below gives False.

Worked examples, 8 sequences total:
AGGUAGCAAUAUUACGCACU ... False
UCUCAGCAAUAUUACGAGCG ... True
GAAAAGCAAUAUUACGCCAA ... False
AGAUAGCAAUAUUACGACGC ... True
GCUCAGCAAUAUUACGCUCC ... True
AACGAGCAAUAUUACGUUUU ... False
GUCGAGCAAUAUUACGAUGG ... False
GCCGAGCAAUAUUACGUACG ... False

stdin: For this sequence, is measured self-splicing fitness (ln) -0.09 or higher? GUGGAGCAAUAUUACGGCCG
stdout: False

stdin: For this sequence, is measured self-splicing fitness (ln) -0.09 or higher? AUAAAGCAAUAUUACGGCGC
stdout: True

stdin: For this sequence, is measured self-splicing fitness (ln) -0.09 or higher? UACUAGCAAUAUUACGGACC
stdout: False

stdin: For this sequence, is measured self-splicing fitness (ln) -0.09 or higher? GGCGAGCAAUAUUACGACGG
stdout: False

Where do these numbers come from? They come from the supplement of paper PMC7877785.
